- systemTested: Tyrosyl-tRNA synthetase, putative (Trypanosoma cruzi (strain CL Brener)) (UniProt Q4DSP6)
- Sequence (whole entry): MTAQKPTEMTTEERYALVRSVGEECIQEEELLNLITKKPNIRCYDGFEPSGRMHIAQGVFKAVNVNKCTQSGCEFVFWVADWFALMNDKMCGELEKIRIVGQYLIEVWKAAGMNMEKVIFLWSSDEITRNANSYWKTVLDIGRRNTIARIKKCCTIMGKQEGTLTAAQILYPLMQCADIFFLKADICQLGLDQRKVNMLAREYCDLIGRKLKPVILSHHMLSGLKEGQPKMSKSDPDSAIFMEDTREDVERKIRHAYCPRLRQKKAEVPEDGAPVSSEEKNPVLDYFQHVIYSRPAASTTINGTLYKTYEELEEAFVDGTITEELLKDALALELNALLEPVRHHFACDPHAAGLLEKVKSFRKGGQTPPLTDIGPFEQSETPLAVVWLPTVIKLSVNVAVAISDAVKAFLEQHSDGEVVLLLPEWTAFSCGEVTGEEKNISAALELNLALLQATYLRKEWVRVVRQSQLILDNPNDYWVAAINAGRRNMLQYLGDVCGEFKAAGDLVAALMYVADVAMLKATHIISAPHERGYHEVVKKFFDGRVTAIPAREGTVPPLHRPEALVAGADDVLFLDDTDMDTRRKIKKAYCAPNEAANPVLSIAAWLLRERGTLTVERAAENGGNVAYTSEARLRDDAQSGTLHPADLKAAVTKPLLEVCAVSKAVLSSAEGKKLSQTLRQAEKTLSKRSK
- assayOverview: Trypanosoma cruzi tyrosyl tRNA synthetase (TcYRS) _High Tyrosine SOP; note: in the data most compounds retested in dose-response had high values
- Assay type: functional
- Parameters: scale not given: direction of the effect not stated beside the values
- cond: 30 µM
quantityMeasured: Percent Effect

The cases that follow already have their Percent Effect on record.
| compound | testValue |
| --- | --- |
| Cc1cccc(N2CCN(CCNC(=O)c3ccnn3C)CC2)c1 | 9.9% |
| N#Cc1cccc(CS(=O)(=O)NCCC(O)c2ccccc2)c1 (stereo not given) | 4.92% |
| Cc1ccccc1CS(=O)(=O)CC(=O)NCc1ccccc1F | 4.25% |

API: value(readout= Percent Effect, system= Tyrosyl-tRNA synthetase, putative (Trypanosoma cruzi (strain CL Brener)) (UniProt Q4DSP6), query= CCc1c(C)nc2n(c1=O)CC(C(=O)Nc1nccs1)CS2 (stereo not given) )
3.17%

Entry CN(C)S(=O)(=O)N1CCCC1CC(=O)c1cccs1 (stereo not given) please
-2.65%

Entry `O=C1N(c2ccc(F)cc2)Cc2nc(=O)n(Cc3cccc(Cl)c3)n21` please
-5.29%

Entry c1cnnc(N2CCCC2CNc2nc3ccccc3o2)c1 (stereo not given) please
0%

---

- systemTested: Tyrosyl-tRNA synthetase, putative (Trypanosoma cruzi (strain CL Brener))
- Sequence (whole entry): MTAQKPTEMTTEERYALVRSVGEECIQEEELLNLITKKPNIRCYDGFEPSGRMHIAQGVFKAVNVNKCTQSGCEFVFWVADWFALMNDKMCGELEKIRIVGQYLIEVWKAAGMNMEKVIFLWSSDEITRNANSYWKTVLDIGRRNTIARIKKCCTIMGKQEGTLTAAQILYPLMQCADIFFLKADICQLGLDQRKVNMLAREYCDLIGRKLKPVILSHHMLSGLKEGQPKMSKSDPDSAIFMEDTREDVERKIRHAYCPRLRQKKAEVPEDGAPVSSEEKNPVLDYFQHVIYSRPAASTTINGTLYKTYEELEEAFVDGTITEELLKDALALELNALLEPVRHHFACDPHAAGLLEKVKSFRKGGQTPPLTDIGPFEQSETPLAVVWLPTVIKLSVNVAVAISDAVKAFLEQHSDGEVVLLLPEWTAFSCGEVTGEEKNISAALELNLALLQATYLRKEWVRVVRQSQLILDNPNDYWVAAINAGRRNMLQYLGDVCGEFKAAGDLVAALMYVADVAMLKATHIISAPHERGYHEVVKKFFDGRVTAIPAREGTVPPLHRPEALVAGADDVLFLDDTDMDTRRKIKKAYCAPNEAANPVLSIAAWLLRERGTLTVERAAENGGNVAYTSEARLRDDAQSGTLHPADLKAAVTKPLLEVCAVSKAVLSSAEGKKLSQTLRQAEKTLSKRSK
- assayOverview: Trypanosoma cruzi tyrosyl tRNA synthetase (TcYRS) SOP
- Assay type: functional
- Parameters: scale not given: direction of the effect not stated beside the values
- cond: 30 µM
quantityMeasured: Percent Effect (%)
Use % as the unit, but write only the number.

The cases that follow already have their Percent Effect on record.
| compound | systemTested | Percent Effect / % |
| --- | --- | --- |
| COc1ccc(CN2CCCC2Cn2nc(C)nc2C)cc1F (stereo not given) | Tyrosyl-tRNA synthetase, putative (Trypanosoma cruzi (strain CL Brener)) | 7.59 |
| c1cc(CNCc2ccnc(N3CCOCC3)c2)c2c(c1)OCCO2 | Tyrosyl-tRNA synthetase, putative (Trypanosoma cruzi (strain CL Brener)) | 16.1 |
| Cc1cnn(CC2CN(Cc3nc4ccccc4nc3C)CCO2)c1 (stereo not given) | Tyrosyl-tRNA synthetase, putative (Trypanosoma cruzi (strain CL Brener)) | 14.1 |
| CN(C)c1nc2c(c(N3CCC(O)CC3)n1)CN(CC1CCNC1)CC2 (stereo not given) | Tyrosyl-tRNA synthetase, putative (Trypanosoma cruzi (strain CL Brener)) | 19.5 |
| O=C(CN1CCC(C(=O)c2cc(F)ccc2F)CC1)NC1CCCC1 | Tyrosyl-tRNA synthetase, putative (Trypanosoma cruzi (strain CL Brener)) | 0 |

Quick one: Percent Effect of `CCN(CC)C(=O)c1nnn(-c2ccc(C)cc2)c1C1CC1` ?
18.3

Entry CC1=Nc2c(c(=O)[nH]n2C(C)C)C(c2ccccc2)S1 (stereo not given) please
28.2

Entry `O=C(c1ccnnc1)N1C[C@@H]2CC[C@H](Oc3cccc(F)c3)[C@@H]2C1` please
-3.9

Entry `CN(Cc1ccc2c(c1)OCO2)Cc1nc2c(cnn2C)c(=O)[nH]1` please
6.17

Entry CC(NC(=O)NCCCN(C)S(C)(=O)=O)c1cccc(Cl)c1 (stereo not given) please
7.59

Entry `Cc1cccc(CNCc2c(C(C)C)nn(C)c2N2CCOCC2)n1` please
5

Entry COc1c(C)cnc(CN2CCC(N(C)C(C)C(N)=O)CC2)c1C (stereo not given) please
14.6

Entry OC1CCN(Cc2c(C3CCCNC3)[nH]c3ncccc23)CC1 (stereo not given) please
9.09

Entry `Cc1nnc(N2C[C@H](C(=O)NCC3CC3)[C@@H]3CCO[C@@H]3C2)s1` please
1.28

Entry COc1ccc(C(=O)N2CCCCC2c2nc(C)cs2)nn1 (stereo not given) please
14.6

Entry CCCn1nc(C)c(CNC(=O)C2COc3c(cccc3OC)C2)c1C (stereo not given) please
16.1

Entry `Cc1cc2cc(C(=O)N[C@@H]3CC[C@@H](N4CCOCC4)[C@@H]3O)ccc2o1` please
3.9

Entry CSCC(C)(O)CNC(=O)c1cc(Br)ccc1Cl (stereo not given) please
17.5

Entry Cc1nn(CC(=O)N2CCCC2Cn2cccn2)c(C)c1Cl (stereo not given) please
20.7

Entry `Cc1ccc(N2CC3(CCN(c4nccs4)C3)C2)nn1` please
11.1

Entry `O=C(NCc1ccco1)[C@H]1C[C@H]2OCC[C@H]2N(S(=O)(=O)C2CC2)C1` please
15

Entry `CC(C)CCn1c(=O)nc2n1C(=O)N(c1ccc(F)cc1)C2` please
-10.4
